All figures here come from patent US9062037B2.

- assay-text: in vitro
- assay-conditions: human, liver microsomes, pH 7.4, Half-life, HLM; 10 μM; Complete
assay-endpoint: half-life at 10 µM (min)
Write the value in min as a bare number.

What does the record list as half-life at 10 µM for CCOC(=O)c1ccc(C#Cc2ccc3c(c2)C(C)(C)CCS3)nc1 ?
8.38

And the next one, CC1(C)CCSc2ccc(C#Cc3ccc(C(=O)O)cn3)cc21 ?
147

Try the compound CCOC(=O)c1ccc(C#Cc2ccc3c(c2)C(C)(C)CC(OC(=O)c2ccccc2)S3)nc1 (stereo not shown)
71.4

Now the same for CCOC(=O)c1ccc(C#Cc2ccc3c(c2)C(C)(C)CC[S+]3[O-])nc1 (stereo not shown) [Tazarotene sulfoxide]
10.7

----------
- assay-conditions: 1 μM initial concentration; Complete (with NADPH); 30 min
assay-endpoint: Test Article remaining, percent of initial concentration (%)
The reply should be a number in %, with the unit left off.

Value lookup for Test Article remaining, percent of initial concentration; key = CC1(C)CCSc2ccc(C#Cc3ccc(C(=O)O)cn3)cc21
82.0

Consider next the molecule CCOC(=O)c1ccc(C#Cc2ccc3c(c2)C(C)(C)CC(OC(=O)c2ccccc2)S3)nc1 (stereo not shown) in the same way.
4.45

Can you check CCOC(=O)c1ccc(C#Cc2ccc3c(c2)C(C)(C)CC[S+]3[O-])nc1 (stereo not shown) [Tazarotene sulfoxide] next?
8.86

Again, but for CCOC(=O)c1ccc(C#Cc2ccc3c(c2)C(C)(C)CCS3)nc1
4.91

----------
- assay-text: in vitro
- assay-conditions: human, liver microsomes, pH 7.4, Half-life, HLM; 1 μM; Complete
assay-endpoint: half-life at 1 µM (min)
Give a bare numeral; the unit min is implied.

Looking for the measured half-life at 1 µM of CCOC(=O)c1ccc(C#Cc2ccc3c(c2)C(C)(C)CC[S+]3[O-])nc1 (stereo not shown) [Tazarotene sulfoxide] , can you help?
10.1

Now give it for CCOC(=O)c1ccc(C#Cc2ccc3c(c2)C(C)(C)CC(OC(=O)c2ccccc2)S3)nc1 (stereo not shown) [Compound 4] too.
7.76

# repeat for CC1(C)CCSc2ccc(C#Cc3ccc(C(=O)O)cn3)cc21 [Tazarotenic acid]
108

CCOC(=O)c1ccc(C#Cc2ccc3c(c2)C(C)(C)CCS3)nc1 [Tazarotene] ?
7.88

----------
- assay-conditions: 1 μM initial concentration; Without NADPH; 30 min
I'd appreciate it if you could supply Test Article remaining, percent of initial concentration values for the items below.
Provide only the numeric value, understood in %.

What value of measured Test Article remaining, percent of initial concentration is listed for CCOC(=O)c1ccc(C#Cc2ccc3c(c2)C(C)(C)CC[S+]3[O-])nc1 (stereo not shown) [Tazarotene sulfoxide] ?
8.40

Repeat with CC1(C)CCSc2ccc(C#Cc3ccc(C(=O)O)cn3)cc21 [Tazarotenic acid]
101

Next entry: CCOC(=O)c1ccc(C#Cc2ccc3c(c2)C(C)(C)CCS3)nc1 [Tazarotene]
4.86

And the next one, CCOC(=O)c1ccc(C#Cc2ccc3c(c2)C(C)(C)CC(OC(=O)c2ccccc2)S3)nc1 (stereo not shown) [Compound 4] ?
2.97

----------
- assay-conditions: 1 μM initial concentration; Without NADPH; 60 min
So I've got a bunch of compounds here, and I need their Test Article remaining, percent of initial concentration values.
Param answer (str): number followed by unit.

I would be grateful if you could share the reported Test Article remaining, percent of initial concentration for CCOC(=O)c1ccc(C#Cc2ccc3c(c2)C(C)(C)CCS3)nc1 [Tazarotene] .
0.65%

Next entry: CCOC(=O)c1ccc(C#Cc2ccc3c(c2)C(C)(C)CC(OC(=O)c2ccccc2)S3)nc1 (stereo not shown) [Compound 4]
0.53%

Let us now turn to CC1(C)CCSc2ccc(C#Cc3ccc(C(=O)O)cn3)cc21 [Tazarotenic acid]
101%

Try CCOC(=O)c1ccc(C#Cc2ccc3c(c2)C(C)(C)CC[S+]3[O-])nc1 (stereo not shown) [Tazarotene sulfoxide] next.
1.11%
